Quick list: human MASP1 IC50 per entry.
Molecular target: T1, recombinant human MASP1 active protease (amino acids 297-699, C-terminal His Tag) (human, UniProt P48740 297-699)
T1 sequence: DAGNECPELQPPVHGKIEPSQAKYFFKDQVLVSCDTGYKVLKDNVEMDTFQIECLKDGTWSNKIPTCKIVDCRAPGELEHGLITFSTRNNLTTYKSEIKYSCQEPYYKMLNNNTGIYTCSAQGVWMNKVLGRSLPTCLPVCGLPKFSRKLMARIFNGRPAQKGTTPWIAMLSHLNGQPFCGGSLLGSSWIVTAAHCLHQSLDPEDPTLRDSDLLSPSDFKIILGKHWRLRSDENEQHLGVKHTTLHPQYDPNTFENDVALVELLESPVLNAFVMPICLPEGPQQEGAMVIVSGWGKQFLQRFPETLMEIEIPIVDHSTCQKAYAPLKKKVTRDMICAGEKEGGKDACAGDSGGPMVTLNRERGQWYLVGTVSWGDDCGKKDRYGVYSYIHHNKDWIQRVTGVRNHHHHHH
Experiment: cell-based or functional assay
Bridge positions count the residues as written; N and C are the ends. Square brackets hold non-standard residues; d marks the D form. Ends that are not written are not given here. * marks the point of attachment. X5 = Tetrahydropyranyl‑4‑acetic acid, O=C(CC1CCOCC1)*; Oic = O=C(O)[C@@H]1C[C@@H]2CCCC[C@@H]2N1; tBuAla = CC(C)(C)C[C@H](N)C(=O)O; Pen = CC(C)(S)[C@H](N)C(=O)O; NMeC = CN[C@@H](CS)C(=O)O; Sar = CNCC(=O)O
Value expressed in nM; do not type the unit.

Known human MASP1 IC50 results, listed for orientation:
>>> val("[Sar]ICSRSLP[Oic]I[Pen]IPP[(2S)‑3‑(Triazol-1-yl)‑2‑(amino)propanoic acid]-NH2 (disulfide 3-11)")
2.3
>>> val("X5-ICSRS[tBuAla]PPI[NMeC]I-NH2 (disulfide 2-10; SMILES CC[C@H](C)[C@H](NC(=O)[C@@H]1CSSC[C@H](NC(=O)[C@@H](NC(=O)CC2CCOCC2)[C@@H](C)CC)C(=O)N[C@@H](CO)C(=O)N[C@@H](CCCNC(=N)N)C(=O)N[C@@H](CO)C(=O)N[C@@H](CC(C)(C)C)C(=O)N2CCC[C@H]2C(=O)N2CCC[C@H]2C(=O)N[C@@H]([C@@H](C)CC)C(=O)N1C)C(N)=O) [Example 305: (Tetrahydropyranyl-4-acetic acid)-IC+SRS-((tBu)A)-PPI-((N-Me)C)+I-NH2]")
19

Lab note: next binder to report on.
Look at this binder and give its reported human MASP1 IC50. AICSRSLP[Oic]I[Pen]IPN-OH (disulfide 3-11; N-terminus assumed; SMILES CC[C@H](C)[C@H](NC(=O)[C@H](C)N)C(=O)N[C@H]1CSSC(C)(C)[C@@H](C(=O)N[C@H](C(=O)N2CCC[C@H]2C(=O)N[C@@H](CC(N)=O)C(=O)O)[C@@H](C)CC)NC(=O)[C@H]([C@@H](C)CC)NC(=O)[C@@H]2C[C@@H]3CCCC[C@@H]3N2C(=O)[C@@H]2CCCN2C(=O)[C@H](CC(C)C)NC(=O)[C@H](CO)NC(=O)[C@H](CCCNC(=N)N)NC(=O)[C@H](CO)NC1=O) [Example 418: AIC+SRSLP-(Oic)-I-(Pen)+IPN-OH]
1.8

meta.source: patent US20210246166A1
